// provenance: PubChem BioAssay AID328

- Test system: BDF1 mice, P388 leukemia ip, median survival T/C
- Test: NCI In Vivo Anticancer Drug Screen. Data for tumor model P388 Leukemia (intraperitoneal) in B6D2F1 (BDF1) mice
- Conditions: endpoint: median survival time; dose: 50.0 mg/kg/injection; schedule: Q04DX003 (ip); vehicle: Klucel (hydroxypropylcellulose) (HPC); higher = longer survival
Inconclusive results and toxic doses are left out.
Quantity Measured: T/C

CC1(C)C=C(C(Br)c2ccc(Cl)cc2)C(=O)c2ccccc21 (configuration not stated)
100 % of control
Cn1c2nc3ccccc3c-2nc2ccccc21
103 % of control
O=C1NCCN1c1cccc([N+](=O)[O-])c1
100 % of control

Just so you know, measured T/C for COc1ccc2c(c1OC)C1(CCN(C)C)CC(=O)CCC1C=C2 (configuration not stated) came out at 100 % of control

// O=C(Cc1ccc([N+](=O)[O-])cc1)c1ccc(O)cc1O : T/C value = 86 % of control

The reported value for Sc1ccc2ccccc2c1 in terms of T/C is 104 % of control
